The reported measurements were obtained from patent US20220213092A1.

In this section we review reported IC50 values for a set of compounds.
- Tgt: BTK (Homo sapiens, UniProt Q06187)
- Construct: purchased Nanosyn, Santa Clara, Calif; host or cells: 293HEK
- Sequence (Q06187 whole entry): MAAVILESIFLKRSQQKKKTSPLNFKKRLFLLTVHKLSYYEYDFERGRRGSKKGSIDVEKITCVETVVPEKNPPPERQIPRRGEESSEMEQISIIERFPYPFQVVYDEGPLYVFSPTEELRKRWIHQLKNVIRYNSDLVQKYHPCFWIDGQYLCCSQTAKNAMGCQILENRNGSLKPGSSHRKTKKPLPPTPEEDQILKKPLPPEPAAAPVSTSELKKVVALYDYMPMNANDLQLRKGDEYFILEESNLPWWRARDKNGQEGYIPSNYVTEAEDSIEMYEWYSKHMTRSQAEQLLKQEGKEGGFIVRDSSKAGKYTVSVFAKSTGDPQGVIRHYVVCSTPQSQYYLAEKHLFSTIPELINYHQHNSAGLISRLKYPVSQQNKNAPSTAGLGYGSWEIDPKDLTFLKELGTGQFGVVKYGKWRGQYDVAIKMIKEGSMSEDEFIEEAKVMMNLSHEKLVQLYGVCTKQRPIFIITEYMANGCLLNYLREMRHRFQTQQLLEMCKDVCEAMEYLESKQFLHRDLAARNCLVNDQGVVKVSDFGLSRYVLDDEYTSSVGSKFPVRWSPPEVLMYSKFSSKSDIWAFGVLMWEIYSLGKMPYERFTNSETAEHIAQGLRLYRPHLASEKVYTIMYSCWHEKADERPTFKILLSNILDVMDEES
- Experiment Description: BTK kinase electrophoretic mobility shift assay (MSA)
- Format: biochemical
- Condition Summary: 50 μM ATP, 0.5 nM BTK enzyme (Nanosyn-293HEK, WT), 3 hours at 25° C.; all examples except 50, 51, 62 and 63; read-out: BTK IC50
- Description: Kinase activity, unless otherwise indicated, was measured in vitro using an electrophoretic mobility shift assay (MSA). The phosphorylation of a peptide substrate by BTK and other kinases was measured. […] The terminated reactions were analyzed using a 12 channel LABCHIP® 3000 microfluidic detection instrument (available from Caliper Life Sciences, Waltham, Mass.). […] Change in the relative fluorescence intensity of the substrate and product peaks was the parameter measured, reflecting enzyme activity. […]
Answer with the figure and its unit, nothing else.

The examples below pair each entry with its known result.
C=CC(=O)N1CCN(C2CCNc3c2nn(-c2ccc(Oc4ccc(F)cc4)cc2)c3C(N)=O)CC1 (stereo not shown) [Example 56]    14.8 nM
C=CC(=O)N1CCN([C@H]2CCNc3c2nn(-c2ccc(Oc4cccc(OC(F)(F)F)c4)cc2)c3C(N)=O)CC1 [Example 101]    64.1 nM
C=CC(=O)N1CCN([C@@H]2CCNc3c2nn(-c2ccc(Oc4ccc(F)cc4F)cc2)c3C(N)=O)CC1 [Example 70]    7.09 nM
C=CC(=O)N1CCC[C@@H]([C@@H]2CCNc3c2nn(-c2ccc(Oc4ccccc4)cc2)c3C(N)=O)C1 (racemic) [Example 9]    13.8 nM
C=CC(=O)N1CCC(C2CCNc3c2nn(-c2ccc(Oc4ccccc4)cc2)c3C(N)=O)CC1 (racemic) [Example 1]    0.426 nM

The reported IC50 of the compound C=CC(=O)N1C[C@@H](C)N(C2CCNc3c2nn(-c2ccc(Oc4ccccc4)cc2)c3C(N)=O)C[C@@H]1C (stereo partly shown) [Example 21] was 919 nM

# IC50 (compound: C=CC(=O)N1CCC(C2CCNc3c2nn(-c2ccc(Oc4ccccc4)cc2F)c3C(N)=O)CC1 (stereo not shown) [Example 37] ) is 2.48 nM

Entry C=CC(=O)N1CCN([C@@H]2CCNc3c2nn(-c2ccc(Oc4ccc(F)cc4)cc2)c3C(N)=O)CC1 [Example 71] — recorded IC50 = 22.8 nM

IC50 for C=CC(=O)N1CCN([C@@H]2CCNc3c2nn(-c2ccc(Oc4ccc(C)cc4)cc2)c3C(N)=O)CC1 [Example 92] is 2.42 nM

# IC50 of C=CC(=O)N1CCC(C2CCNc3c2nn(-c2ccc(Oc4ccc(Cl)cc4)cc2)c3C(N)=O)CC1 (stereo not shown) [Example 28] = 4.66 nM

Reported IC50 ( C=CC(=O)N1CCN([C@@H]2CCNc3c2nn(-c2ccc(Oc4ccccc4C#N)cc2)c3C(N)=O)CC1 [Example 69] ) = 2.18 nM

Looking up C=CC(=O)N1CCN([C@@H]2CCNc3c2nn(-c2ccc(Oc4ccc(O)cc4)cc2)c3C(N)=O)CC1 [Example 44] , I see its IC50 listed as 15.4 nM

The recorded IC50 for C=CC(=O)N1CCC([C@@H]2CCNc3c2nn(-c2ccc(Oc4ccc(F)cc4F)cc2)c3C(N)=O)CC1 [Example 29] is 24.2 nM
